Source of measurements: paper PMC9282237

pEC50 values, listed per item
Test system: Yap phosphorylation in HEK293A cells
ASSAY_NOTES: cellular assay of Yap phosphorylation (ratio of pYap to tYap in homogenates from treated cells)
Format: cell-based
RUN_CONDITIONS: HEK293-A, read-out: pYAP EC50
pEC50: −log10 of the molar value.
MEASURED_METRIC: pEC50

# COMPOUND, MEASURED_METRIC, ENDPOINT_RESULT
measured = [
    ("O=C(/N=c1\\sccn1Cc1ccccc1)c1c[nH]c2ncccc12 [TRULI, reference compound]", "pEC50", 6.23),
    ("Cc1cs/c(=N\\C(=O)c2c[nH]c3ncccc23)n1Cc1ccccc1", "pEC50", 6.97),
    ("Cc1cn(Cc2ccccc2)/c(=N/C(=O)c2c[nH]c3ncccc23)s1", "pEC50", 5.50),
]
